The entries below are paired with their reported percent inhibition of Factor 7 mRNA, relative to untreated control cells.
# System: human Factor 7 mRNA
# experiment.description: Dose-dependent antisense inhibition of human Factor 7 in HepB3 cells, transfection with lipofectin
# Type: cell-based
# condition.label: 50 nM, lipofectin, HepB3 cells, 16 hours
In the oligonucleotide strings, read from the 5' end, every base follows the letter of its sugar. An asterisk marks phosphorothioate; unmarked linkages are phosphodiester. Other units and linkages are bracketed, terminal groups are in braces. A string of capitals states the bases alone. e = 2'-O-(2-methoxyethyl) (MOE); [5mC] = 5-methylcytosine; d = 2'-deoxy (DNA)
Your answer should be a plain number; it is taken to be in %.

Consider the worked cases shown below.
In [3]: df
Out[3]:
                                  substance  units_symbol  measured_number
0  422152 (antisense eA*eT*eG*d[5mC]*dA*dT*dG*dG*dT*dG*dA*dT*dG*d[5mC]*dT*dT*d[5mC]*eT*eG*eA) [compound 422152]             %               83
1  422295 (antisense e[5mC]*eG*dA*dG*dT*dT*d[5mC]*dT*dG*d[5mC]*dA*dG*dG*dA*dG*e[5mC]*eG*eG*e[5mC]*e[5mC]) [compound 422295]             %               80
2  422150 (antisense eG*e[5mC]*eA*dT*dG*dG*dT*dG*dA*dT*dG*d[5mC]*dT*dT*d[5mC]*dT*dG*eA*eA*eT) [compound 422150]             %               79

Next:
QUERY: State percent inhibition of Factor 7 mRNA, relative to untreated control cells on human Factor 7 mRNA. Entry: 422217 (antisense eG*eA*eG*dT*dT*d[5mC]*dT*dG*d[5mC]*dA*dG*dG*dA*dG*d[5mC]*dG*dG*e[5mC]*e[5mC]*eT) [compound 422217]
RESULT: 79

----------
The entries below are paired with their reported percent inhibition of Factor 7 mRNA, relative to untreated control cells.
# System: human Factor 7 mRNA
# experiment.description: Dose-dependent antisense inhibition of human Factor 7 in HepB3 cells, transfection with electroporation
# Type: cell-based
# condition.label: 25 μM, 16 hours (Example 7, Table 15)
In the oligonucleotide strings, read from the 5' end, every base follows the letter of its sugar. An asterisk marks phosphorothioate; unmarked linkages are phosphodiester. Other units and linkages are bracketed, terminal groups are in braces. A string of capitals states the bases alone. e = 2'-O-(2-methoxyethyl) (MOE); [5mC] = 5-methylcytosine; d = 2'-deoxy (DNA)
State the value, then name its unit.

QUERY: Tell me percent inhibition of Factor 7 mRNA, relative to untreated control cells reported for 422096 (antisense eA*eG*eA*e[5mC]*eA*dA*dT*dG*dG*dT*d[5mC]*dA*dG*dG*dG*e[5mC]*eT*eG*eG*eT) [compound 422096]
RESULT: 50%

----------
# System: human Factor 7 mRNA
# experiment.description: Antisense inhibition of human Factor 7 mRNA in HepB3 cells, lipofectin, 50 nM, real-time RT-PCR
# Format: cell-based
# condition.label: Example 1; HepB3 cells, lipofectin, 50 nM, ~24 h, relative to untreated control cells
In the oligonucleotide strings, read from the 5' end, every base follows the letter of its sugar. An asterisk marks phosphorothioate; unmarked linkages are phosphodiester. Other units and linkages are bracketed, terminal groups are in braces. A string of capitals states the bases alone. e = 2'-O-(2-methoxyethyl) (MOE); [5mC] = 5-methylcytosine; d = 2'-deoxy (DNA)
The entries below are paired with their reported % Inhibition (human Factor 7 mRNA).
Your answer should be a plain number; it is taken to be in %.

substance	% Inhibition (human Factor 7 mRNA), %
407918 (antisense e[5mC]*e[5mC]*eT*eG*eG*dT*dG*dT*dA*d[5mC]*dA*d[5mC]*d[5mC]*d[5mC]*d[5mC]*eA*eA*eA*eG*eT) [compound 407918]	72
407661 (antisense eT*eT*eT*eA*e[5mC]*dA*dA*dG*dA*dG*d[5mC]*dA*dG*dG*dG*eT*eG*e[5mC]*e[5mC]*eT) [compound 407661]	47
407611 (antisense eT*e[5mC]*eT*e[5mC]*eA*d[5mC]*dA*dG*dT*dT*d[5mC]*d[5mC]*dG*dG*d[5mC]*e[5mC]*e[5mC]*eT*e[5mC]*eG) [compound 407611]	82
407630 (antisense e[5mC]*eA*e[5mC]*eA*eT*dG*dG*dT*d[5mC]*dA*dG*dT*dG*dA*dG*eG*eA*e[5mC]*e[5mC]*eA) [compound 407630]	29

Next:
QUERY: Tell me % Inhibition (human Factor 7 mRNA) reported for 407668 (antisense eG*eA*eA*eG*e[5mC]*d[5mC]*dT*dT*dA*d[5mC]*d[5mC]*dT*dG*d[5mC]*d[5mC]*eA*eT*eG*eG*eA) [compound 407668]
RESULT: 54
